Source of measurements: ChEMBL document CHEMBL4689842

Tested on: U2OS
assay-text: Incucyte cell viability with U2OS; also: filed as whole numbers so only -1 and 0 and 1 occur
Type: toxicity, cell-based
test-parameters: human, 18 h, 10 µM, compound concentration 10 uM, replicate number 1, timepoint 18 hours
readout: Growth Rate
Respond using a number only.

**Query** For `Cn1cc(-c2[nH]c3cc(NC(=O)[C@H](N)C4CCCCC4)cc4c3c2C=NNC4=O)cn1` , what is its reported Growth Rate?
**Result** 0

**Query** Check `COc1cc2c(cc1OCCCN1CCCC1)N=C(N)C21CCC1` too.
**Result** 1

**Query** How about `CNc1nc(NCc2ccc(NS(C)(=O)=O)cc2Cl)cc(-c2ccccn2)n1` ?
**Result** 0

**Query** // query: `C=CC(=O)Nc1ccc2ncnc(Nc3ccc(OCc4cccc(F)c4)c(Cl)c3)c2c1.Cc1ccc(S(=O)(=O)O)cc1`
**Result** 0

**Query** # iterate: CNCc1ccccc1-c1csc([C@H](C)Nc2nc(C)nc3cc(OC)c(OC)cc23)c1 [BAY-294]
**Result** 0

----------
Tested on: U2OS
assay-text: Multiplex assay against U2OS
Type: toxicity, cell-based
test-parameters: human, 48 h, 10 µM, compound concentration 10 uM, replicate 1
Assign classes using reported Population Mitochondria Different-Phenotype (%) values and the ranges lower range: < 60%; middle range: ≥ 60% and < 90%; upper range: ≥ 90%, please.

**Query** Hello team, could you let me know which band the following compound falls into: `CNc1nc(NCc2ccc(NS(C)(=O)=O)cc2Cl)cc(-c2ccccn2)n1`
**Result** lower range

**Query** Next: Cc1nc(-c2ccc(-c3ccc(C(=O)N4CCc5cc6c(cc54)C4(CCN(C)CC4)CO6)cc3)c(C)c2)no1 [SB-224289]
**Result** upper range

**Query** Input COc1ncc(-c2ccc3nccc(-c4ccnnc4)c3c2)cc1NS(=O)(=O)c1ccc(F)cc1F [OMIPALISIB]
**Result** lower range

**Query** And what about the compound C[C@@H](NCCCc1cccc(C(F)(F)F)c1)c1cccc2ccccc12.Cl [CINACALCET HYDROCHLORIDE] ?
**Result** upper range

**Query** Check NC(=O)Nc1cc(-c2cccc(F)c2)sc1C(=O)N[C@H]1CCCNC1 [AZD-7762] too.
**Result** lower range

**Query** What do you get for Cl.N#Cc1ccc2[nH]cc(CCCCN3CCN(c4ccc5oc(C(N)=O)cc5c4)CC3)c2c1 [VILAZODONE HYDROCHLORIDE] ?
**Result** upper range

**Query** One more compound: `OC1(c2ccc(Cl)cc2)CCN(Cc2c[nH]c3ccccc23)CC1`
**Result** middle range

**Query** Quick one: CN1CCC[C@@H]1CCO[C@](C)(c1ccccc1)c1ccc(Cl)cc1.O=C(O)/C=C/C(=O)O [CLEMASTINE FUMARATE]
**Result** middle range

**Query** Another compound: `COc1cc2nccc(Oc3ccc(NC(=O)Nc4cc(C)on4)c(Cl)c3)c2cc1OC.O`
**Result** upper range

**Query** What would you report for CC(C)NCC(O)COc1ccc(CCOCC2CC2)cc1.Cl (stereo unspecified) [BETAXOLOL HYDROCHLORIDE] ?
**Result** lower range

**Query** Now consider COc1cccc([C@@H](C)NCCCc2ccccc2Cl)c1.Cl [TECALCET HYDROCHLORIDE] and answer again.
**Result** lower range

**Query** Thanks! And CC[C@H](C)C(=O)O[C@H]1C[C@@H](C)C=C2C=C[C@H](C)[C@H](CC[C@@H]3C[C@@H](O)CC(=O)O3)[C@H]21 [LOVASTATIN] ?
**Result** lower range
